Attribute: half-life at 1 mg/mL
protocolDescription: Stability in PBS at room temperature via HPLC (UV)
Format: physicochemical
cond: phosphate-buffered saline (DPBS), pH 7.03, PBS, rt; read-out: t½: PBS, rt (Table S23) (converted)
valueKind: half-life at 1 mg/mL (h)

1. C/C(=N\OC(=O)N(C)C[C@H]1CCCN1)[C@H]1CC[C@H]2[C@@H]3CCC4=CC(=O)CC[C@]4(C)[C@H]3CC[C@]12C.O=C(O)C(F)(F)F [20m] :: 6.15
2. CNCCN(CCN1CCOCC1)C(=O)O/N=C(\C)[C@H]1CC[C@H]2[C@@H]3CCC4=CC(=O)CC[C@]4(C)[C@H]3CC[C@]12C.O=C(O)C(F)(F)F [20j] :: 21.8
3. C/C(=N\OC(=O)N(CCO)CCNCCO)[C@H]1CC[C@H]2[C@@H]3CCC4=CC(=O)CC[C@]4(C)[C@H]3CC[C@]12C.Cl [20z] :: 28.8

====

protocolDescription: Plasma stability assay at 37 °C via LC-MS/MS, human plasma;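 note: prodrugs at 3 µM incubated in human plasma at 37 °C, intact prodrug quantified by LC-MS/MS over time, values are means of duplicate runs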
Type: in vitro ADME
cond: 2 h
valueKind: Plasma, 37 °C %rem. at 2h (Table S23) (%)

1. CNCCN(C(=O)O/N=C(\C)[C@H]1CC[C@H]2[C@@H]3CCC4C[C@H](O)CC[C@]4(C)[C@H]3CC[C@]12C)C1CC1.O=C(O)C(F)(F)F (stereo partly shown) [21b] :: 16
2. CNCCN(C(=O)O/N=C(\C)[C@H]1CC[C@H]2[C@@H]3CCC4C[C@H](O)CC[C@]4(C)[C@H]3CC[C@]12C)C1CCC1.O=C(O)C(F)(F)F (stereo partly shown) [21d] :: 16
3. CNCCN(CC(C)C)C(=O)O/N=C(\C)[C@H]1CC[C@H]2[C@@H]3CCC4=CC(=O)CC[C@]4(C)[C@H]3CC[C@]12C.O=C(O)C(F)(F)F [20f] :: 95

====

protocolDescription: PBS stability assay at 37 °C via LC-MS/MS
Format: physicochemical
cond: phosphate-buffered saline (DPBS), pH 7.03, PBS, 37 °C, LC-MS/MS; read-out: Half-life (t½) PBS 37°C (converted)
Label MET when half-life at 3 µM is at or above 2 h; otherwise label NOT MET.

1) C/C(=N\OC(=O)N(C)C[C@@H]1CC2(CC2)CN1)[C@H]1CC[C@H]2[C@@H]3CCC4=CC(=O)CC[C@]4(C)[C@H]3CC[C@]12C [20q] :: NOT MET
2) CNCCN(C(=O)O/N=C(\C)[C@H]1CC[C@H]2[C@@H]3CCC4=CC(=O)CC[C@]4(C)[C@H]3CC[C@]12C)C1CCCC1.O=C(O)C(F)(F)F [20e] :: NOT MET
3) CNCCN(C)C(=O)O/N=C(\C)[C@H]1CC[C@H]2[C@@H]3CCC4C[C@H](O)CC[C@]4(C)[C@H]3CC[C@]12C.O=C(O)C(F)(F)F (stereo partly shown) [21a] :: MET
4) C/C(=N\OC(=O)N(C)C[C@@H]1CCCN1)[C@H]1CC[C@H]2[C@@H]3CCC4C[C@H](O)CC[C@]4(C)[C@H]3CC[C@]12C (stereo partly shown) [21l] :: NOT MET
5) CNC1(CN(C)C(=O)O/N=C(\C)[C@H]2CC[C@H]3[C@@H]4CCC5=CC(=O)CC[C@]5(C)[C@H]4CC[C@]23C)CCC1 [20t] :: NOT MET
6) C/C(=N\OC(=O)N(C)C[C@@H]1C[C@H](N(C)C)CN1)[C@H]1CC[C@H]2[C@@H]3CCC4=CC(=O)CC[C@]4(C)[C@H]3CC[C@]12C [20u] :: NOT MET
7) CNCCN(C(=O)O/N=C(\C)[C@H]1CC[C@H]2[C@@H]3CCC4C[C@H](O)CC[C@]4(C)[C@H]3CC[C@]12C)C1CCC1.O=C(O)C(F)(F)F (stereo partly shown) [21d] :: NOT MET
8) CNCCN(C)C(=O)O/N=C(\C)[C@H]1CC[C@H]2[C@@H]3CCC4=CC(=O)CC[C@]4(C)[C@H]3CC[C@]12C [20a] :: MET
9) CNCCN(C(=O)O/N=C(\C)[C@H]1CC[C@H]2[C@@H]3CCC4=CC(=O)CC[C@]4(C)[C@H]3CC[C@]12C)C(C)C.O=C(O)C(F)(F)F [20c] :: MET
10) CNCCN(C(=O)O/N=C(\C)[C@H]1CC[C@H]2[C@@H]3CCC4C[C@H](O)CC[C@]4(C)[C@H]3CC[C@]12C)C1CC1.O=C(O)C(F)(F)F (stereo partly shown) [21b] :: MET

====

Attribute: solubility
protocolDescription: Aqueous solubility by visual inspection in acetate buffer (pH 5)
cond: sodium acetate buffer, pH 5, aqueous buffer, thermodynamic from solid
valueKind: solubility

1) CNC1(CN(C)C(=O)O/N=C(\C)[C@H]2CC[C@H]3[C@@H]4CCC5=CC(=O)CC[C@]5(C)[C@H]4CC[C@]23C)CCC1 [20t] :: > 10000 µg/mL
2) C/C(=N\OC(=O)N(C)CC[C@@H]1CCCN1)[C@H]1CC[C@H]2[C@@H]3CCC4=CC(=O)CC[C@]4(C)[C@H]3CC[C@]12C.O=C(O)C(F)(F)F [20n] :: > 10000 µg/mL
3) CNCCN(C(=O)O/N=C(\C)[C@H]1CC[C@H]2[C@@H]3CCC4=CC(=O)CC[C@]4(C)[C@H]3CC[C@]12C)C1CCC1.O=C(O)C(F)(F)F [20d] :: > 10000 µg/mL
4) C/C(=N\OC(=O)N(CCO)CCNCCO)[C@H]1CC[C@H]2[C@@H]3CCC4=CC(=O)CC[C@]4(C)[C@H]3CC[C@]12C.Cl [20z] :: > 10000 µg/mL
5) CNCCN(CCn1ccnc1)C(=O)O/N=C(\C)[C@H]1CC[C@H]2[C@@H]3CCC4C[C@H](O)CC[C@]4(C)[C@H]3CC[C@]12C (some centres unmarked) [21k] :: > 5000 µg/mL
6) CNCCN(CCN1CCCC1)C(=O)O/N=C(\C)[C@H]1CC[C@H]2[C@@H]3CCC4=CC(=O)CC[C@]4(C)[C@H]3CC[C@]12C.O=C(O)C(F)(F)F [20h] :: < 10000 µg/mL
7) C/C(=N\OC(=O)N(CCN)CCN)[C@H]1CC[C@H]2[C@@H]3CCC4=CC(=O)CC[C@]4(C)[C@H]3CC[C@]12C [20w] :: > 10000 µg/mL
8) CNCCN(C(=O)O/N=C(\C)[C@H]1CC[C@H]2[C@@H]3CCC4C[C@H](O)CC[C@]4(C)[C@H]3CC[C@]12C)C1CCC1.O=C(O)C(F)(F)F (some centres unmarked) [21d] :: > 5000 µg/mL
9) CNCCN(C(=O)O/N=C(\C)[C@H]1CC[C@H]2[C@@H]3CCC4C[C@H](O)CC[C@]4(C)[C@H]3CC[C@]12C)C1CC1.O=C(O)C(F)(F)F (some centres unmarked) [21b] :: > 5000 µg/mL
10) CNCCN(CCN(C)C)C(=O)O/N=C(\C)[C@H]1CC[C@H]2[C@@H]3CCC4=CC(=O)CC[C@]4(C)[C@H]3CC[C@]12C [20g] :: < 10000 µg/mL
11) CNCCN(C(=O)O/N=C(\C)[C@H]1CC[C@H]2[C@@H]3CCC4=CC(=O)CC[C@]4(C)[C@H]3CC[C@]12C)C(C)C.O=C(O)C(F)(F)F [20c] :: > 10000 µg/mL
12) CNCCN(C(=O)O/N=C(\C)[C@H]1CC[C@H]2[C@@H]3CCC4=CC(=O)CC[C@]4(C)[C@H]3CC[C@]12C)C1CC1.O=C(O)C(F)(F)F [20b] :: > 10000 µg/mL
13) CNCCN(CCCN1CCOCC1)C(=O)O/N=C(\C)[C@H]1CC[C@H]2[C@@H]3CCC4=CC(=O)CC[C@]4(C)[C@H]3CC[C@]12C.O=C(O)C(F)(F)F [20i] :: > 10000 µg/mL
14) CNCCN(C)C(=O)O/N=C(\C)[C@H]1CC[C@H]2[C@@H]3CCC4C[C@H](O)CC[C@]4(C)[C@H]3CC[C@]12C.O=C(O)C(F)(F)F (some centres unmarked) [21a] :: > 5000 µg/mL

====

protocolDescription: Stability in acetate buffer pH 5.0 at room temperature via HPLC (UV)
Type: physicochemical
cond: pH 5, acetate buffer pH 5.0, rt, read-out: t½: pH 5.0, rt (Table S23) (converted)
valueKind: half-life at 1 mg/mL

1. C/C(=N\OC(=O)N(CCN)CCN)[C@H]1CC[C@H]2[C@@H]3CCC4=CC(=O)CC[C@]4(C)[C@H]3CC[C@]12C [20w] :: > 168 h
2. C/C(=N\OC(=O)N(C)C[C@@H]1C[C@H](N(C)C)CN1)[C@H]1CC[C@H]2[C@@H]3CCC4=CC(=O)CC[C@]4(C)[C@H]3CC[C@]12C [20u] :: 72 h
3. C/C(=N\OC(=O)N(C)C[C@@H]1CC2(CC2)CN1)[C@H]1CC[C@H]2[C@@H]3CCC4=CC(=O)CC[C@]4(C)[C@H]3CC[C@]12C [20q] :: > 168 h
